Values from patent US9006450B2

- experimental.system: human ACC2 (Homo sapiens, UniProt O00763)
- Construct: made in house; host or cells: insect cells (baculoviral expression system)
- Sequence (O00763 129-2458 limits assumed): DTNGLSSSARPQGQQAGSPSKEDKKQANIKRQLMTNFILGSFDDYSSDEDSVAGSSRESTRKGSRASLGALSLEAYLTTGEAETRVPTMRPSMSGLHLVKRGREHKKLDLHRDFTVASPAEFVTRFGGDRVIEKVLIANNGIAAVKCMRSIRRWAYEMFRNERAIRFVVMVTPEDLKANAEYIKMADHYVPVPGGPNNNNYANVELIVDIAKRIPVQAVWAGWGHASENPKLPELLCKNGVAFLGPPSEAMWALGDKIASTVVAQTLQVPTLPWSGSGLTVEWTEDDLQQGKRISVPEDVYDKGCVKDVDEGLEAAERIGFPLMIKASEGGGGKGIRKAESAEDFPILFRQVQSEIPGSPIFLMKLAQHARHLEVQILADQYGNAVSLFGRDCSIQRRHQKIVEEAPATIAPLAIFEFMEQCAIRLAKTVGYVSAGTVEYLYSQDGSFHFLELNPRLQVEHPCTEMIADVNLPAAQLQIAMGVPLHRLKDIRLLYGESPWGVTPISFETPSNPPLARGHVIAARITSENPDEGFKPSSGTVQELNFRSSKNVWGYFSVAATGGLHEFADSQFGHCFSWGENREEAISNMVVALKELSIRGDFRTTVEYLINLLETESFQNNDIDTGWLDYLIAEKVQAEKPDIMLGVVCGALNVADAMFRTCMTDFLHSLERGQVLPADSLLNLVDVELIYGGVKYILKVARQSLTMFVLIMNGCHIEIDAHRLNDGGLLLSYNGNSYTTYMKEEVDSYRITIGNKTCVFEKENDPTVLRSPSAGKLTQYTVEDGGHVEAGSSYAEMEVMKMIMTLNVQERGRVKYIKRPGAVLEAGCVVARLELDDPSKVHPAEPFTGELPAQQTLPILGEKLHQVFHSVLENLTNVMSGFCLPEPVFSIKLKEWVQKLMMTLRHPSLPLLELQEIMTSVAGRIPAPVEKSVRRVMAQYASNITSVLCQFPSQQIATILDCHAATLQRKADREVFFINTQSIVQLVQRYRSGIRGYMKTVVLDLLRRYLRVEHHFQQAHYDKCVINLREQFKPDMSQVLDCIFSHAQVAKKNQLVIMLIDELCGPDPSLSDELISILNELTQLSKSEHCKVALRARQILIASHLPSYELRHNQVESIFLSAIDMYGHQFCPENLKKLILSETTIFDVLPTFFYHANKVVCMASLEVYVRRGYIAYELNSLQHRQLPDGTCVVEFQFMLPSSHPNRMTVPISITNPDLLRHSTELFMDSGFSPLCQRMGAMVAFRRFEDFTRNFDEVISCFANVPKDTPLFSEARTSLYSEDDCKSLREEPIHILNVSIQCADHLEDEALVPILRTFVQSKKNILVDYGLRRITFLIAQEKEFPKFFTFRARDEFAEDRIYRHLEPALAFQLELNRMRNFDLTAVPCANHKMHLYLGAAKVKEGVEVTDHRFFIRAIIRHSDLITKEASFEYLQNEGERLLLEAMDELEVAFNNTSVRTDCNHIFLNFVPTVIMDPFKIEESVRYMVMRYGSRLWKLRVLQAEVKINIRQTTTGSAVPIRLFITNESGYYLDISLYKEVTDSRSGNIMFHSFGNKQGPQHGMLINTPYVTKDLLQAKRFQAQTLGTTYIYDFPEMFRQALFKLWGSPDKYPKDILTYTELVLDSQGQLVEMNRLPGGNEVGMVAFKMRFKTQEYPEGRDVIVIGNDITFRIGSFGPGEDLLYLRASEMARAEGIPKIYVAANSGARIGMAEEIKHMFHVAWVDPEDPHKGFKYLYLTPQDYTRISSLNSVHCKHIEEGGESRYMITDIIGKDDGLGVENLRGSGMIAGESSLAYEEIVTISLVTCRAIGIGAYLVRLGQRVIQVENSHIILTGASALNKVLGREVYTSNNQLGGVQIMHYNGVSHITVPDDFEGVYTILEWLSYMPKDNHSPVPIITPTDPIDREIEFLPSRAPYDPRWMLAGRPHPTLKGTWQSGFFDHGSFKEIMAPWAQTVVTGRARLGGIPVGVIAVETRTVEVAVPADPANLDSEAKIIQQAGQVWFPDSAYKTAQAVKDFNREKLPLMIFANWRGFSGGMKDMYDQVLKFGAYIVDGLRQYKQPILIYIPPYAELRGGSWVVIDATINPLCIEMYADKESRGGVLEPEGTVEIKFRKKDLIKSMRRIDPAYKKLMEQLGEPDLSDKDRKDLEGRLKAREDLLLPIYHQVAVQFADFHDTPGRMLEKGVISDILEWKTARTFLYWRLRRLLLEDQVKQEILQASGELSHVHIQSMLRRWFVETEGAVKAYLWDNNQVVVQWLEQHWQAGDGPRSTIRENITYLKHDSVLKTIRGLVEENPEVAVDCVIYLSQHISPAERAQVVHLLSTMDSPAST
- test.summary: ACC2 assay, spectrophotometric 384 well assay (NADH-linked, coupled lactate dehydrogenase/pyruvate kinase)
- Type: biochemical
- experimental.conditions: ACC2 assay, hACC2 construct lacking 128 N-terminal amino acids, 25° C., 340 nm; read-out: IC50
Please provide measured pIC50 for the entries that follow.
Give bare numbers, as −log10 of the molar value.

Below are worked cases with known answers.
Enquiry: Lab note: need pIC50 for CC(=O)N[C@@H](C)c1ccc(C2CCN(c3ncc(C(=O)NCC4OCCO4)cn3)CC2)cc1 [Example 18.83] on human ACC2 (Homo sapiens, UniProt O00763), anyone have it?
Return: 5.06

Enquiry: Same thing, different molecule: COC(=O)N[C@@H](C)c1ccc(C2CCN(c3ccc(OC(C)C)cc3)CC2)cc1 [Example 1.135]
Return: 6.47

Can you give me pIC50 for all of these, one by one?
1. CC(=O)N[C@@H](C)c1ccc(C2CCN(c3cc(NCCc4ccccc4)ncn3)CC2)cc1 [Example 11.72]
2. CC(=O)N[C@@H](C)c1ccc(C2CCN(c3ccc(OCC4CCOCC4)cc3)CC2)cc1 [Example 9.30]
3. CC(=O)N[C@@H](C)c1ccc(C2CCN(c3ccc(-c4nc5ccccc5[nH]4)cn3)CC2)cc1 [Example 5.25]
4. COc1ccccc1NC(=O)c1cnc(N2CCC(c3ccc([C@H](C)NC(C)=O)cc3)CC2)nc1 [Example 18.16]
5. CCSc1ccc(-c2cnc(N3CCC(c4ccc([C@H](C)NC(C)=O)cc4)CC3)nc2)cc1 [Example 10.64]

Return:
4.98
5.64
5.62
5.29
5.15

# batch: return pIC50 for each of the 3 molecules below
1. COc1nc(OCC2CC2)ncc1N1CCC(c2ccc([C@H](C)NC(C)=O)cc2)CC1 [Example 16.11]
2. CCOc1ccc(N2CCC(c3ccc(C4(NC(C)=O)CC4)cc3)CC2)cc1 [Example 3.20]
3. CC(C)Oc1cc(N2CCC(c3ccc([C@H](C)NC(=O)N(C)C)cc3)CC2)ncn1 [Example 20.3]

Return:
[5.89, 5.13, 6.74]
